- subject of test: T1, biotinylated human Ang2 protein (human, UniProt O15123 19-496, limits assumed, biotinylated (sites not given))
- T1 construct: also called hAng2
- T1 sequence (looked up): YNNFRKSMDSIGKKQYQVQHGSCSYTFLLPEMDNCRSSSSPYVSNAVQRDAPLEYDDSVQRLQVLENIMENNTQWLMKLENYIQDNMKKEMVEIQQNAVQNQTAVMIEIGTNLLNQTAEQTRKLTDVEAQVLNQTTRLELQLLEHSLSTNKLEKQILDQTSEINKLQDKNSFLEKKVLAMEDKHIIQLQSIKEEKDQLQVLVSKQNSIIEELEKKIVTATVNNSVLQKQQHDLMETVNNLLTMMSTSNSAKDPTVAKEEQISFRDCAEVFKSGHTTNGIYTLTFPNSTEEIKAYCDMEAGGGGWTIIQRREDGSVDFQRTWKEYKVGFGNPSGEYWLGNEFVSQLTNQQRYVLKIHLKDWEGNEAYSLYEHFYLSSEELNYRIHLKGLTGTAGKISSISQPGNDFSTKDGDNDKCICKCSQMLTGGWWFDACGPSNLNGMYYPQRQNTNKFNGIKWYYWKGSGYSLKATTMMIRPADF
- experiment notes: competition ELISA: antibody preincubated with biotinylated hAng2, binding to coated integrin α5/β1
quantity name: pIC50
pIC50 (log units): -log10 of the concentration in mol/L.

Challenge: Need pIC50 of No. 41 anti-Ang2 antibody (IgG) (antibody, V domains shown, IgG form: VH cloned into Invivogen pfusess-hchg1, VL into Invivogen pfuse2ss-hclk; also called 2B2) VH: QVQLVESGGGLVQPGGSLRLSCEASGFAFGRYEMNWVRQAPGKGLEWIAYIDTGGGAKVYADSVKGRFTISRDDSKNSLYLQMNSLRAEDTAVYYCTTEGLMNGLHFDMWGQGTMITVSS VL: DIQMTQSPSTLSASVGDRVAITCRASQAISTWLAWYQQKPGKAPKLLIYTASTLESGVPSRFSGSGSGTDFTLTINSLQPDDFATYYCQQLNSYPYTFGGGTKVEIKR , thanks.
Response given: 8.83
